target: murine SR-BI (Mus musculus); construct: expressed in transfected cells; host or cells: ldlA-7 (LDL receptor deficient Chinese hamster ovary cells); test: Uptake of DiI from DiI-HDL by ldlA[mSR-BI] cells (high throughput screen and concentration dependence); assay type: cell-based; settings: Test 2
Give Satisfied when the value for ENDOHDL Test 2 is at least 1. Give Not satisfied when it is less.

Cc1cccc(N2C(=O)CN(C3CCOCC3)C2=O)c1 [MIT 9952-2] : Satisfied
Cn1cc(C=O)c2cc(Br)ccc21 [MIT 9952-193] : Not satisfied
CC(C)(C)c1ccc(C(=O)Nc2ccccc2C(=O)Cl)cc1 [MIT 9952-47] : Satisfied
Cc1nc(-c2ccc([N+](=O)[O-])cc2)c(C(=O)Nc2ccccc2)s1 [MIT 9952-160] : Not satisfied
O=C(COc1ccc(Cl)cc1)N/N=C/c1ccc(Cl)cc1 [MIT 9952-124] : Satisfied
CC(C)(C)c1ccc(C(=O)Nc2cccc(NC(=O)c3cccc([N+](=O)[O-])c3)c2)cc1 [MIT 9952-214] : Not satisfied
NC(=O)N/N=C/c1ccc(-c2ccc([N+](=O)[O-])cc2)o1 [MIT 9952-126] : Not satisfied
CC(=O)c1c(C)n(-c2ccccc2)c2ccc(O)cc12 [MIT 9952-119] : Not satisfied
Cc1nc(O)c(C(c2cc([N+](=O)[O-])ccc2O)c2c(O)nc(C)nc2O)c(O)n1 [MIT 9952-82] : Satisfied
Nc1nc(N)nc(-c2cccc(-c3nc(N)nc(N)n3)c2)n1 [MIT 9952-173] : Satisfied
COc1ccc(NC(=O)c2cc([N+](=O)[O-])c(C)c([N+](=O)[O-])c2)cc1Cl [MIT 9952-226] : Not satisfied
C/C(CCS(=O)(=O)c1ccc(C)cc1)=N\NC(N)=S [MIT 9952-225] : Not satisfied
Cc1cc(C)c(/C=N/N=C/c2c(C)cc(C)cc2C)c(C)c1 [MIT 9952-69] : Satisfied
C#CCOC(=O)CCCC(=O)Nc1ccccc1[N+](=O)[O-] [MIT 9952-191] : Satisfied
COc1ccc(C(=O)NC(Nc2cccc3ccccc23)C(Cl)(Cl)Cl)cc1 (stereo not shown) [MIT 9952-131] : Not satisfied
CCCCCOc1ccc(-c2ccc(C(=O)NC(NCc3ccccc3)C(Cl)(Cl)Cl)cc2)cc1 (stereo not shown) [MIT 9952-247] : Not satisfied
NC(/N=N/c1ccccc1)=N\Nc1ccccc1 [MIT 9952-122] : Not satisfied
O=C(Nc1nc(-c2ccccc2)cs1)Nc1ccc(Cl)cc1Cl [MIT 9952-232] : Not satisfied

----------
Target: SR-BI (Mus musculus)
Construct: endogenous in cells
Sequence (Q61009 1-509): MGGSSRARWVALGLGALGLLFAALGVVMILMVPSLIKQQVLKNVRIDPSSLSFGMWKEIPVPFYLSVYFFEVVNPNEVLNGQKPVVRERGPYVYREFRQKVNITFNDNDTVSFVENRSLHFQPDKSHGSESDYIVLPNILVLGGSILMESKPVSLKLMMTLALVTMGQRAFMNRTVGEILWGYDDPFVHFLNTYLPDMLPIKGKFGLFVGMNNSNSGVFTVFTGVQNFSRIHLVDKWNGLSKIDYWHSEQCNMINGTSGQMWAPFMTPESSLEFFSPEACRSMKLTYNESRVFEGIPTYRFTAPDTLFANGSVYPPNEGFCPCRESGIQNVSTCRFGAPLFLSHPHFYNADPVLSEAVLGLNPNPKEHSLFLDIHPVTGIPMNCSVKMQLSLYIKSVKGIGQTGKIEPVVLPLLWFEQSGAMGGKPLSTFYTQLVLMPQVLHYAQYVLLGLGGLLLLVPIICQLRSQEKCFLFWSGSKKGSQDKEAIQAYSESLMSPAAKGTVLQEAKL
Assay: Uptake of [3H]CE from [3H]CE-HDL by Y1-BS1 adrenocortical cells
Details: inhibition, n=2, read-out: (A) EC50 [^3H]CEt HDL uptake (Y1-BS1 cells)
Quantity Name: EC50 (nM)

C/C(=N\NC(=O)c1ccccc1I)c1ccc(N)cc1 : 8000
COc1ccccc1NC(=O)Nc1ccc2ccccc2c1 : 4400
CCCCCCC1CCC/C1=N\NC(N)=S (centres unmarked) : 380
CCCCOCCC1CCC/C1=N\NC(N)=S (centres unmarked) : 410
c1ccc(-c2noc(-c3ccccc3)c3cccc2-3)cc1 : 1700

----------
biological target: murine SR-BI (Mus musculus, UniProt Q61009); construct: expressed in transfected cells; host or cells: ldlA-7 (LDL receptor deficient Chinese hamster ovary cells); assay: 125I-HDL binding to ldlA[mSR-BI] cells; conditions: ldlA[mSR-BI] cells; enhancement of HDL binding, 10 μg protein/ml HDL; mean ± SD, n=3; read-out: (A) EC50 ^1nI-HDL binding
Response field label: string, one of 1 (yes) (EC50 strictly below 0.2 µM) or 0 (no).

CCCCCCC1CCC/C1=N\NC(N)=S (centres unmarked) [MIT 9952-53] : 1 (yes)
c1ccc(-c2noc(-c3ccccc3)c3cccc2-3)cc1 [MIT 9952-19] : 0 (no)
CCCCOCCC1CCC/C1=N\NC(N)=S (centres unmarked) [MIT 9952-61] : 0 (no)
COc1ccccc1NC(=O)Nc1ccc2ccccc2c1 [MIT 9952-29] : 0 (no)
C/C(=N\NC(=O)c1ccccc1I)c1ccc(N)cc1 [MIT 9952-6] : 0 (no)

----------
The entries below come with measured ENDOHDL Test 1 values attached.
Biological target: murine SR-BI (Mus musculus, UniProt Q61009)
Construct: expressed in transfected cells; host or cells: ldlA-7 (LDL receptor deficient Chinese hamster ovary cells)
Sequence (Q61009 1-509): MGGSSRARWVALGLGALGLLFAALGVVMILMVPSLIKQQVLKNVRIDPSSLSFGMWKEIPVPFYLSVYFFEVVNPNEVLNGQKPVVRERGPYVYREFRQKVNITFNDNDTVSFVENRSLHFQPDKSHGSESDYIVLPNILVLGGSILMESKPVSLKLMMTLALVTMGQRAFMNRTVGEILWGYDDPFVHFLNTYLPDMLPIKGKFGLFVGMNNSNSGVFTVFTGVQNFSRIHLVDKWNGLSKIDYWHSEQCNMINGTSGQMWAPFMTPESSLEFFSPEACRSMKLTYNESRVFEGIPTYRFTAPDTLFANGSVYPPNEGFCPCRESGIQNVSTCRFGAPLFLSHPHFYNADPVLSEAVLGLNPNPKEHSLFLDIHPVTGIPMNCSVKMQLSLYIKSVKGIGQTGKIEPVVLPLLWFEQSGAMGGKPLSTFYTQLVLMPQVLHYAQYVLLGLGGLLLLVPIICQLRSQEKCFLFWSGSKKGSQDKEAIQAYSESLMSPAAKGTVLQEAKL
Experiment: Uptake of DiI from DiI-HDL by ldlA[mSR-BI] cells (high throughput screen and concentration dependence)
Format: cell-based
Details: Test 1; DiI uptake from DiI-HDL, compounds at nominal 10 micromolar, ldlA[mSR-BI] cells
Quantity Name: ENDOHDL Test 1

O=C(NC(NC(=S)Nc1ccc2ccccc2c1)C(Cl)(Cl)Cl)c1cccc([N+](=O)[O-])c1 (stereo not shown) : 0.54
CCOc1ccc2nc3cc(/N=N/c4ccc(N)nc4N)ccc3c(N)c2c1 : 0.54
CCn1c2ccccc2c2cc(/C=N/NC(N)=S)ccc21 : 0.59
O=[N+]([O-])c1ccc(-c2sc(/N=C/c3c(O)ccc4ccccc34)nc2-c2ccc(Cl)cc2)cc1 : 0.62
O=C(Nc1cccc(NC(=O)c2ccccc2Cl)c1)c1cccc([N+](=O)[O-])c1 : 0.6
Nc1ccc(C(=O)Nc2ccc(-c3nc4ccc(NC(=O)c5ccc(N)cc5)c(Cl)c4[nH]3)cc2Cl)cc1 : 0.57
O=C(N/N=C/c1cc2c(cc1Br)OCO2)c1cccc(Cl)c1 : 0.59
NCC[Se][Se]CCN : 0.67
C/C(CCS(=O)(=O)c1ccc(C)cc1)=N\NC(N)=S : 0.56
CCSC(=O)C(NC1=C(C)C(=O)N1)c1ccccc1 (stereo not shown) : 0.47
Clc1ccc(N2CCC/C2=N\c2c3c(nc4ccccc24)N(c2ccccc2)CC3)cc1Cl : 0.67
CCOC(=O)C1=C(c2ccc(Cl)cc2)C(=O)c2ccccc2C1=O : 0.51
O=C(CSC1=NCCN1)Nc1ccccc1 : 0.55
COc1cccc(C(=O)Nc2nc3ccc(Cl)cc3s2)c1 : 0.6
O=C(Nc1ccc(-c2nc3cc(NC(=O)c4ccccc4[N+](=O)[O-])ccc3o2)cc1)c1ccccc1[N+](=O)[O-] : 0.58
[O-][n+]1onc2c3cc(-c4ccccc4)[nH]c3ccc21 : 0.35
O=C(Nc1sc2c(c1C(=O)NCCc1ccc(O)cc1)CCCC2)c1ccccc1 : 0.63
Cc1cc(C)c(/C=N/N=C/c2c(C)cc(C)cc2C)c(C)c1 : 1.18
Nc1cc2cccnc2c2ncccc12 : 0.61
O=C(Nc1ccc2c(c1)OCO2)c1ccc2ccccc2c1 : 0.75
COc1ccc([N+](=O)[O-])cc1NC(=O)c1ccccc1 : 0.61
CC(C)=C/C(=N\Nc1ccc([N+](=O)[O-])cc1[N+](=O)[O-])C1CC=CCC1 (stereo not shown) : 0.59
O=C(NC(NC(=S)Nc1cccc([N+](=O)[O-])c1)C(Cl)(Cl)Cl)C(c1ccccc1)c1ccccc1 (stereo not shown) : 0.4
O=C(NC(NC(=S)Nc1cccc2ccccc12)C(Cl)(Cl)Cl)c1cccc([N+](=O)[O-])c1 (stereo not shown) : 0.56
O=C(NNC(=O)c1cccc2ccccc12)c1ccc(NC(=O)c2cccc3ccccc23)cc1 : 0.57
Cc1ccc(NC(=S)NC(NC(=O)c2ccccc2Cl)C(Cl)(Cl)Cl)cc1 (stereo not shown) : 0.69
C=CC/C=C/c1c(NC(=O)c2ccccc2)sc2c1CCCC2 : 0.61
C/C(=N\NC(N)=S)c1ccc[nH]1 : 0.7

The origin of these recorded values is patent US20040171073A1.
